System under test: Toxin B (Clostridioides difficile)
Test method notes: Binding affinity to His6 tagged Clostridioides difficile Toxin B truncated cysteine protease domain (543 to 799 residues) extracted from Escherichia coli BL21 (DE3) assessed as dissociation constant in presence of 10 mM Ca2+ by ITC method
pKd: −log10 of the molar value.

Smiles data: O=S(=O)(O)O[C@H]1[C@H](OP(O)(O)=S)[C@H](OS(=O)(=O)O)[C@H](OP(O)(O)=S)[C@@H](OS(=O)(=O)O)[C@@H]1OP(O)(O)=S
pKd: 5.58
//
Smiles data: O=S(=O)(O)O[C@@H]1[C@@H](OP(O)(O)=S)[C@H](OS(=O)(=O)O)[C@H](OS(=O)(=O)O)[C@H](OS(=O)(=O)O)[C@H]1OP(O)(O)=S
pKd: 5.33
//
Smiles data: O=S(=O)(O)O[C@H]1[C@H](OP(O)(O)=S)[C@@H](OS(=O)(=O)O)[C@H](OP(O)(O)=S)[C@@H](OS(=O)(=O)O)[C@H]1OP(O)(O)=S
pKd: 5.27

----------
Attribute: Activity
System under test: Toxin B (Clostridioides difficile) (UniProt P18177)
Sequence (P18177 whole entry, the tested form may be a part): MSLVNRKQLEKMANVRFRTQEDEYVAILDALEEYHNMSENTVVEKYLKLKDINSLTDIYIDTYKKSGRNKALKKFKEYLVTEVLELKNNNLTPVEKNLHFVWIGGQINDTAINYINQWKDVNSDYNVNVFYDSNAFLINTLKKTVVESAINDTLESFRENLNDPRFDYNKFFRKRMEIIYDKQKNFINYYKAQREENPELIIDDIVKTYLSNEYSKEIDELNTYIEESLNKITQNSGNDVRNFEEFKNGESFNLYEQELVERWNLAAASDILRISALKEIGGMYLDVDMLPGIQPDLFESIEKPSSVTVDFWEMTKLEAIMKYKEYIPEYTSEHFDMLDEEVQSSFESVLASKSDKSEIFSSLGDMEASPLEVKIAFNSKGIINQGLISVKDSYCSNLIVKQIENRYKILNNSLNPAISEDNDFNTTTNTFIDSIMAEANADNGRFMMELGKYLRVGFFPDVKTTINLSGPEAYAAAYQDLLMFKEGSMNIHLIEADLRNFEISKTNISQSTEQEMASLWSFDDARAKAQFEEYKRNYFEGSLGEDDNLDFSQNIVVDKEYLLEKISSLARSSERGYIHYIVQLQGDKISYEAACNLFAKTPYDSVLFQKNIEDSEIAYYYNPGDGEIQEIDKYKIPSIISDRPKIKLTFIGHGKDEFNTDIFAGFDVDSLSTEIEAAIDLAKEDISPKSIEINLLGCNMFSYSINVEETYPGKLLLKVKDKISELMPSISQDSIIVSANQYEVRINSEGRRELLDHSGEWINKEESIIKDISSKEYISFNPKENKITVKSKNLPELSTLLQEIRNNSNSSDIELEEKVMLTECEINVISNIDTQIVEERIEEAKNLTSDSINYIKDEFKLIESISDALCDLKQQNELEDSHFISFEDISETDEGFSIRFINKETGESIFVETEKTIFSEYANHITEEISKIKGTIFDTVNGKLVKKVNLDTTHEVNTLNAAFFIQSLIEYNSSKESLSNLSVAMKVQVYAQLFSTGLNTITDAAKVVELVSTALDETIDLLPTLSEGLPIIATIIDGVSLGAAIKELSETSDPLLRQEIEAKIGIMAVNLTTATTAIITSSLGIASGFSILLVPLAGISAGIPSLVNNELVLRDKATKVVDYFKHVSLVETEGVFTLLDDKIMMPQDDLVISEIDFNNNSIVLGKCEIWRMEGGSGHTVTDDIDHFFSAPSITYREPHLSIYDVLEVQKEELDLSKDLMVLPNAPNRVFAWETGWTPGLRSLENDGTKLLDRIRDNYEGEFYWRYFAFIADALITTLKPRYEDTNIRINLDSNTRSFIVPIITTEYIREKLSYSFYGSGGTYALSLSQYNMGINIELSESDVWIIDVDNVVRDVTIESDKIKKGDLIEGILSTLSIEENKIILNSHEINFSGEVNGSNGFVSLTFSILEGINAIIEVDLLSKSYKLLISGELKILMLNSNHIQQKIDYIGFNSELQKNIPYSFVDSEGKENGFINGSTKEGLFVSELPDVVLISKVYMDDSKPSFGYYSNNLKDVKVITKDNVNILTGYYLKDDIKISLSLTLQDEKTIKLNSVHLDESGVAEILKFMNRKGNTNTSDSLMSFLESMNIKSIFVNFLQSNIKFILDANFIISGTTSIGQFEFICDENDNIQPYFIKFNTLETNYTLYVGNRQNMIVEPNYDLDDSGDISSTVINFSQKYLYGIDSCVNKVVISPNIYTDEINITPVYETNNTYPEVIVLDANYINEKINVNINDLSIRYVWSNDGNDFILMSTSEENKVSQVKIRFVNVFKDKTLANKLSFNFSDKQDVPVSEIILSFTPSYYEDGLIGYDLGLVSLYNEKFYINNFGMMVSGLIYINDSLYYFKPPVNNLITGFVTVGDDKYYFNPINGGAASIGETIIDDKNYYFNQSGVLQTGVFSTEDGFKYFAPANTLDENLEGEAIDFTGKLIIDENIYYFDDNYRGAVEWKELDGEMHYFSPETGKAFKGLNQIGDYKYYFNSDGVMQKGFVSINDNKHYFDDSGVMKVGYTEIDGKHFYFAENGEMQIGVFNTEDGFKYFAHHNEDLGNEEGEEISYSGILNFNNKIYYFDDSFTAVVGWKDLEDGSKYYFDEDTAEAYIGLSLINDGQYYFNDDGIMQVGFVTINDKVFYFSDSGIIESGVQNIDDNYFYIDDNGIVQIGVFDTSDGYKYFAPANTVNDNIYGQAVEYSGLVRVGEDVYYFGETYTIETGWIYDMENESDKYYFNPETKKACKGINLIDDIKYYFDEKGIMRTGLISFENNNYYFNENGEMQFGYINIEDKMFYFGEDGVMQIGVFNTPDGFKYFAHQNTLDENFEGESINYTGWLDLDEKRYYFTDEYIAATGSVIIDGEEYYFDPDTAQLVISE
Test method notes: Binding affinity to His6 tagged Clostridioides difficile Toxin B truncated cysteine protease domain (543 to 799 residues) extracted from Escherichia coli BL21 (DE3) assessed as change in number of bound protons per binding interaction at 530 uM by ITC analysis
Run conditions: filed as positive allosteric modulator

Compound: O=S(=O)(O)O[C@H]1[C@H](OP(O)(O)=S)[C@H](OS(=O)(=O)O)[C@H](OP(O)(O)=S)[C@@H](OS(=O)(=O)O)[C@@H]1OP(O)(O)=S
System under test: Toxin B (Clostridioides difficile) (UniProt P18177)
Activity: -0.03
//
Compound: O=P(O)(O)O[C@H]1[C@H](OP(=O)(O)O)[C@@H](OP(=O)(O)O)[C@H](OP(=O)(O)O)[C@@H](OP(=O)(O)O)[C@H]1OP(=O)(O)O [PHYTIC ACID]
System under test: Toxin B (Clostridioides difficile) (UniProt P18177)
Activity: -1.28
//
Compound: O=S(=O)(O)O[C@@H]1[C@@H](OP(O)(O)=S)[C@H](OS(=O)(=O)O)[C@H](OS(=O)(=O)O)[C@H](OS(=O)(=O)O)[C@H]1OP(O)(O)=S
System under test: Toxin B (Clostridioides difficile) (UniProt P18177)
Activity: 0.11
//
Compound: O=S(=O)(O)O[C@H]1[C@H](OP(O)(O)=S)[C@@H](OS(=O)(=O)O)[C@H](OP(O)(O)=S)[C@@H](OS(=O)(=O)O)[C@H]1OP(O)(O)=S
System under test: Toxin B (Clostridioides difficile) (UniProt P18177)
Activity: -0.01

----------
System under test: Toxin B (Clostridioides difficile) (UniProt P18177)
Test method notes: Stabilization of His6 tagged Clostridioides difficile Toxin B truncated cysteine protease domain (543 to 799 residues) extracted from Escherichia coli BL21 (DE3) assessed as change in melting temperature by SYPRO Orange dye based differential scanning fluorometry analysis

Smiles data: O=P(O)(O)O[C@H]1[C@H](OP(=O)(O)O)[C@@H](OP(=O)(O)O)[C@H](OP(=O)(O)O)[C@@H](OP(=O)(O)O)[C@H]1OP(=O)(O)O
ΔTm, °C: 3.3
--
Smiles data: OP(O)(=S)O[C@H]1[C@H](OP(O)(O)=S)[C@@H](OP(O)(O)=S)[C@H](OP(O)(O)=S)[C@@H](OP(O)(O)=S)[C@H]1OP(O)(O)=S
ΔTm, °C: 5.6
--
Smiles data: O=S(=O)(O)O[C@H]1[C@@H](OS(=O)(=O)O)[C@H](OS(=O)(=O)O)[C@@H](OP(O)(O)=S)[C@H](OS(=O)(=O)O)[C@H]1OS(=O)(=O)O
ΔTm, °C: 3.1
--
Smiles data: O=S(=O)(O)O[C@@H]1[C@@H](OP(O)(O)=S)[C@H](OS(=O)(=O)O)[C@H](OS(=O)(=O)O)[C@H](OS(=O)(=O)O)[C@H]1OP(O)(O)=S
ΔTm, °C: 5.3
--
Smiles data: O=S(=O)(O)O[C@H]1[C@H](OP(O)(O)=S)[C@H](OS(=O)(=O)O)[C@H](OP(O)(O)=S)[C@@H](OS(=O)(=O)O)[C@@H]1OP(O)(O)=S
ΔTm, °C: 5.1
